So I've got a bunch of compounds here, and I need their CC50 values.
Test: Functional assay to measure dose dependent changes in cell viability from drug treatment in Vero E6 miRFP670 cells (cotreated with P-gp inhibitor, CP100356) that are infected with Dengue virus type 2 New Guinea C. […] Cytotoxicity is reported via via analysis of DAPI count using high-content imager. The assay has been performed by KU Leuven.
Type: toxicity, cell-based, Vero C1008
Settings: chlorocebus sabaeus, with CP100356 (P-gp inhibitor, concentration not stated); p-gp concentration 500 nM
Unit µM implied. Number only.

response.value for N#Cc1cccc(-c2nc3c(C(=O)Nc4ccc5c(c4)CNC5)cc(F)cc3[nH]2)c1 (field: CC50) = 20.7

response.value for NCc1cc(/C=C/C(=O)O)cc(NC(=O)c2cc(Cl)cc(NC(=O)OCc3ccccc3)c2)c1 (field: CC50) = 15.7

response.value for Cc1nc2c(C(=O)Nc3ccc4c(c3)CNC4)cc(Cl)cc2[nH]1 (field: CC50) = 6.02

response.value for O=C(Nc1ccc2c(c1)CNC2)c1cc(Cl)cc2c1cnn2C1CCC1 (field: CC50) = 12.8

response.value for O=C(Nc1ccc2c(c1)CNC2)c1ccc2c(C3=CCNCC3)csc2c1 (field: CC50) = 18.8

response.value for C=CC[C@H](Nc1cc(Cl)cc(NC(=O)OCc2ccccc2)c1)c1cccc(CN)c1 (field: CC50) = 3.34

response.value for CCCCCC(=O)N[C@H](C(=O)NCc1ccc(N)nc1)c1ccc(OCc2ccccc2)cc1 (field: CC50) = 3.63

response.value for NCc1cccc(NC(=O)[C@H](NC(=O)OCc2ccccc2)C2CCC(c3ccccc3)CC2)c1 (stereo not given in full) (field: CC50) = 11.5

response.value for O=C(Nc1ccc2c(c1)CN[C@H]2CCO)c1cc(F)cc2[nH]ncc12 (field: CC50) = 42.5

response.value for CNC(=O)[C@H](Nc1cccc(CN)c1)c1cc(Cl)cc(NC(=O)OCc2ccccc2)c1 (field: CC50) = 23.7

response.value for O=C(Nc1ccc2c(c1)CNC2)c1cc(Cl)cc2cc[nH]c12 (field: CC50) = 19.7

response.value for CC(C)(C)OC(=O)N1Cc2ccc(N[C@H](C(=O)O)c3cc(Cl)cc4[nH]ncc34)cc2C1 (field: CC50) = 28.9

response.value for O=C(Nc1cc2c(c(-c3ccnnc3)c1)CNC2)c1cc(Cl)cc2[nH]ncc12 (field: CC50) = 25.8

response.value for CC(=O)Nc1cc(Br)cc(C(=O)Nc2ccc3c(c2)CNC3)c1 (field: CC50) = 0.561

response.value for CC(C)n1cc2c(C(=O)Nc3ccc4c(c3)CNC4)cc(Cl)cc2n1 (field: CC50) = 22.7

response.value for CC(=Cc1cc(Cl)cc(NC(=O)OCc2ccccc2)c1)c1cccc(CN)c1 (field: CC50) = 0.906

response.value for O=C(Nc1ccc2c(c1)CNC2)c1cc(F)cc2[nH]c(-c3cccc(F)c3)nc12 (field: CC50) = 2.47

response.value for O=C(Nc1ccc2c(c1)CNC2)c1cc(F)cc(-c2cnc(C3CC3)s2)c1 (field: CC50) = 16.4

response.value for CCCn1cc2c(C(=O)Nc3ccc4c(c3)CNC4)cc(Cl)cc2n1 (field: CC50) = 21.5

response.value for N#C[C@H](Nc1cc(Cl)cc(NC(=O)OCc2ccccc2)c1)c1ccc(-c2nn[nH]n2)cc1 (field: CC50) = 13

response.value for O=C(Nc1ccc2c(c1)CNC2)c1cc(Cl)cc2[nH]c(-c3ccc(F)cc3O)nc12 (field: CC50) = 1.64

response.value for O=C(O)c1cc2cc(-c3cc(Cl)cc(C4CC4)c3)ccc2[nH]1 (field: CC50) = 26.5

response.value for Clc1cccc([C@H](C#Cc2ccccc2)Nc2cccc(-c3nn[nH]n3)c2)c1 (field: CC50) = 6.84
